Molecular target: human TGFβ1, mature receptor-binding domain (human, UniProt P01137 279-390)
Sequence (P01137 279-390 limits assumed): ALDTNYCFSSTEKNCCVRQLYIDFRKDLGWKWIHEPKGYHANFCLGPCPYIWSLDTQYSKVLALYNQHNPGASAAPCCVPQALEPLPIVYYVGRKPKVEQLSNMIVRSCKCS
Assay: cell-based or functional assay
PROPERTY NAME: Blocking IC50 (nM)
I only need the number, in nM, no unit after it.

[Q] Name the reported Blocking IC50 value associated with the binder 1D11 (antibody, V domains shown, also called pan-TGFβ antibody 1D11) VH: QVQLQQSGPELVRPGASVKLSCKASGYIFITYWMNWVKQRPGQGLEWIGQIFPASGSTNYNEMFEGKATLTVDTSSSTAYMQLSSLTSEDSAVYYCARGDGNYALDAMDYWGQGTSVTVSS VL: DIVLTQSPASLAVSLGQRATISCRASESVDSYGNSFMHWYQQKSGQPPKLLIYLASNLESGVPARFSGSGSRTDFTLTIDPVEADDAATYYCQQNNEDPLTFGAGTKLEIK
[A] 0.5
